System: spheroidal aggregates of EMT6 murine breast cancer cells
Test: Test (c): growth inhibition of spheroidal aggregates of EMT6 murine breast cancer cells
Assay type: cell-based
Conditions: Mus musculus, 2 hours treatment, stasis of spheroid growth over 2-3 weeks, read-out: stasis ED50
pEC50: −log10 of the molar value.
Measurement Label: pEC50

// query pEC50 lookup needed for CCCC1=C(C(C)(C)CC(=O)N(C)c2ccc(N(CCCl)CCCl)cc2)C(=O)C=C(C)C1=O , thanks.
// result ~5.40
